- Test system: PIKFYVE
- condition: concentration: 1 μM, replicates: in singlicate; n = 1;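 note: KINOMEscan kinase panel screen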

- compound: "O=C(Nc1ccc2c(c1)OCO2)NC1CCN(c2ccnc(Nc3ccc(F)cc3)n2)C1 (stereo not drawn)"
  %Inh (%): 0
- compound: "COc1ccc(CNC(=O)NC2CCN(c3ccnc(Nc4cc(OC)c(OC)c(OC)c4)n3)C2)cc1 (stereo not drawn)"
  %Inh (%): 6
- compound: "Clc1cc(Cl)cc(Nc2ccnc(Nc3cc(Cl)cc(Cl)c3)n2)c1"
  %Inh (%): 1
- compound: "Cc1cc(N2Cc3ccccc3C2)nc(Nc2ccc(S(=O)(=O)N3CCOCC3)cc2)n1.Cl"
  %Inh (%): 0
- compound: "Cl.O=C(Nc1cccc(-c2nn3ncccc3c2-c2ccnc(Nc3cccnc3)n2)c1)c1c(F)cccc1F"
  %Inh (%): 52
- compound: "CS(=O)(=O)c1ccc(-c2c(-c3ncn[nH]3)sc(N3CCOCC3)c2C#N)cc1"
  %Inh (%): 40
- compound: "Cc1ccc(NC(=O)Nc2cccc(Cl)c2)cc1-c1ccc(C(=O)Nc2ccncc2)cc1"
  %Inh (%): 2
- compound: "O=C(O)COc1ncnc2cc(-c3ccc4[nH]ncc4c3)sc12"
  %Inh (%): 12
- compound: "CN(C)CCN(C)C(=O)c1cc(-c2ccncc2)c(-c2ccc(Cl)c(O)c2)o1.Cl.Cl"
  %Inh (%): 47
- compound: "O=S(=O)(c1ccc(-c2ccnc3[nH]ccc23)cc1)N1CCCC1"
  %Inh (%): 0
- compound: "Fc1cc(Cl)ccc1Nc1ccnc2cc(I)ccc12"
  %Inh (%): 0
- compound: "COc1ccc2nc(-c3cccc(C)n3)nc(Nc3ccncc3)c2c1"
  %Inh (%): 81
- compound: "COC(=O)c1c(-c2ccccc2)c2cc(OC)ccc2c(=O)n1Cc1ccccc1"
  %Inh (%): 13
- compound: "Cn1cncc1-c1ccc2ncnc(Nc3ccc(OCc4ccccc4)cc3)c2c1"
  %Inh (%): 0
- compound: "Fc1cccc(COc2nnc(-c3ccc4c(c3)CCO4)o2)c1"
  %Inh (%): 24

---

- System: GSK3A
- condition: concentration: 1 μM, replicates: in singlicate; n = 1
Decision: %Inh compared against 20%; not below it gives yes, below it gives no.

- compound: "Fc1cc(Cl)ccc1Nc1ccnc2cc(I)ccc12 [GW551191]"
  class.name: "yes"
- compound: "Cc1ccccc1-n1cnc2c(N)ncnc21 [SKF-97510]"
  class.name: "no"
- compound: "COc1cc(Nc2nccc(N3CCC(NC(=O)Nc4cc(C)ccc4C)C3)n2)cc(OC)c1OC (stereo not shown) [GSK1379762]"
  class.name: "no"
- compound: "CC1=C(C(=O)Nc2cc3cn[nH]c3cc2F)C(c2ccc(C(F)(F)F)cc2)CC(=O)N1 (stereo not shown) [GSK429286]"
  class.name: "no"
- compound: "COc1cc2ncnc(Nc3ccc4nc(-c5ccccc5)[nH]c4c3)c2cc1OC.Cl [GW282450]"
  class.name: "no"
- compound: "COc1cc2nccc(Nc3ccc(NC(=O)c4ccc(C)cc4)c(O)c3)c2cc1OC.Cl [GW440132]"
  class.name: "no"
- compound: "COC(=O)c1c(-c2ccccc2)c2cc(OC)ccc2c(=O)n1Cc1ccccc1"
  class.name: "no"
- compound: "Cc1cc(-c2ccc3c(c2)CC[C@@H](N[C@@H](C)c2ccccc2)C3)cnc1N.Cl [GW412617]"
  class.name: "no"
- compound: "CC(C)(C)c1ccc(C(=O)Nc2cn3cc(-c4cccnc4)ccc3n2)cc1"
  class.name: "no"
- compound: "COc1ccc(Nc2nccc(NCCNC(=O)Nc3ccccc3F)n2)cc1 [GSK1379901]"
  class.name: "yes"
- compound: "Cc1c(O)cccc1Nc1ccnc2ccc(C(F)(F)F)cc12.Cl [GW466413]"
  class.name: "no"
- compound: "CC(=O)Nc1nc2cnc(Nc3cc(NC(=O)c4cccc(CCC#N)c4)ccc3C)nc2s1"
  class.name: "no"
- compound: "Cc1ccc(NC(=O)Nc2cccc(Cl)c2)cc1-c1ccc(C(=O)Nc2ccncc2)cc1 [GSK1398468]"
  class.name: "yes"
- compound: "Clc1cc(Cl)cc(Nc2ccnc(Nc3cc(Cl)cc(Cl)c3)n2)c1 [GSK175726]"
  class.name: "yes"
- compound: "Nc1ncnc2[nH]c(-c3ccccc3)nc12 [AH5015]"
  class.name: "yes"
- compound: "Cc1ccc(NC(=O)Nc2cc(C(C)(C)C)nn2-c2ccccc2)cc1 [GSK1014915]"
  class.name: "no"
- compound: "COc1cccc(NC(=O)NC2CCN(c3ccnc(Nc4ccc(F)cc4)n3)C2)c1 (stereo not shown) [GSK1379721]"
  class.name: "yes"
- compound: "CS(=O)(=O)c1ccc(-c2c(-c3ncn[nH]3)sc(N3CCOCC3)c2C#N)cc1"
  class.name: "no"
- compound: "Cl.O=C(Nc1cccc(-c2nn3ncccc3c2-c2ccnc(Nc3cccnc3)n2)c1)c1c(F)cccc1F [GSK312879]"
  class.name: "yes"
- compound: "Cc1cccc(-c2nc(C)cc(Nc3ccncc3)n2)n1 [GSK257997]"
  class.name: "yes"
- compound: "O=S(=O)(c1ccc(-c2ccnc3[nH]ccc23)cc1)N1CCCC1 [GSK846226]"
  class.name: "no"
- compound: "CN1C(=O)C(Nc2ccc(Cl)c(C(=O)O)c2)=C(c2ccc(Cl)cc2)C1=O [SB-404290]"
  class.name: "no"

---

- Tested on: DAPK3
- condition: concentration: 1 μM, replicates: in singlicate; n = 1
Group membership follows %Inh per the scheme range 1 (below 2%), range 2 (2% to below 20%), range 3 (20% or more)

- compound: "Cn1cncc1-c1ccc2ncnc(Nc3ccc(OCc4ccccc4)cc3)c2c1"
  class.name: "range 3"
- compound: "Fc1cc(Cl)ccc1Nc1ccnc2cc(-c3ccc(CN4CCCCC4)o3)ccc12"
  class.name: "range 3"
- compound: "Cn1ccc2ncnc(Oc3ccc(Nc4nc5ccccc5[nH]4)cc3)c21"
  class.name: "range 2"
- compound: "CN(C)CCN(C)C(=O)c1cc(-c2ccncc2)c(-c2ccc(Cl)c(O)c2)o1.Cl.Cl"
  class.name: "range 3"
- compound: "Cc1ccc(NC(=O)Nc2cccc(Cl)c2)cc1-c1ccc(C(=O)Nc2ccncc2)cc1"
  class.name: "range 3"
- compound: "COC(=O)c1c(-c2ccccc2)c2cc(OC)ccc2c(=O)n1Cc1ccccc1"
  class.name: "range 2"
- compound: "COc1ccc(Nc2nccc(-c3cccc(NC(=O)c4cc5cc(F)ccc5[nH]4)c3)n2)cc1"
  class.name: "range 2"
- compound: "O=C(Nc1n[nH]c2nc(-c3nccs3)c(Br)cc12)C1CC1"
  class.name: "range 2"
- compound: "CCn1c(-c2ccccn2)nc2cnccc21"
  class.name: "range 2"
- compound: "O=C(Nc1ccc2c(c1)OCO2)NC1CCN(c2ccnc(Nc3ccc(F)cc3)n2)C1 (stereo not drawn)"
  class.name: "range 1"
- compound: "Cc1cc(-c2ccc3c(c2)CC[C@@H](N[C@@H](C)c2ccccc2)C3)cnc1N.Cl"
  class.name: "range 1"
- compound: "Cn1ccc2ncnc(Oc3cccc(C(=O)Nc4ccccc4)c3)c21"
  class.name: "range 1"
- compound: "COc1ccc2nc(-c3cccc(C)n3)nc(Nc3ccncc3)c2c1"
  class.name: "range 3"
- compound: "CS(=O)(=O)c1ccc(-c2c(-c3ncn[nH]3)sc(N3CCOCC3)c2C#N)cc1"
  class.name: "range 1"

---

- System: MAK
- condition: concentration: 1 μM, replicates: in singlicate; n = 1
Decision: %Inh compared against 20%; not below it gives met, below it gives not met.

- smiles.notation: "Cc1cccc(-c2nc(-c3ccc(S(C)(=O)=O)cc3)sc2-c2ccnc(NCCc3ccccc3)c2)c1"
  class.name: "not met"
- smiles.notation: "C[C@@H]1CCCCN1c1cc(-c2ccc3c(N)n[nH]c3c2)nc(N)n1"
  class.name: "met"
- smiles.notation: "CCn1c(-c2ccccn2)nc2cnccc21"
  class.name: "not met"
- smiles.notation: "Cc1cccc(-c2nc(Nc3cccc(C(N)=O)c3)c3ccccc3n2)n1"
  class.name: "not met"
- smiles.notation: "Nc1nc(-c2nccs2)c(-c2ccnc3ccccc23)s1"
  class.name: "met"
- smiles.notation: "O=S(=O)(c1ccc(-c2ccnc3[nH]ccc23)cc1)N1CCCC1"
  class.name: "met"
- smiles.notation: "Cc1cc(N2Cc3ccccc3C2)nc(Nc2ccc(S(=O)(=O)N3CCOCC3)cc2)n1.Cl"
  class.name: "not met"
- smiles.notation: "Nc1ncnc2[nH]c(-c3ccccc3)nc12"
  class.name: "not met"

---

Property: %Inh; scope: individual compounds
- Test system: LKB1
- Construct: gene STK11
- condition: concentration: 1 μM, replicates: in singlicate; n = 1
measure: %Inh (%)

- compound: "COc1cc(Nc2nccc(N3CCC(NC(=O)Nc4cc(C)ccc4C)C3)n2)cc(OC)c1OC (stereo not drawn) [GSK1379762]"
  measure: "%Inh"
  result.number: 0
- compound: "COC(=O)c1c(-c2ccccc2)c2cc(C(=O)O)ccc2c(=O)n1Cc1ccccc1"
  measure: "%Inh"
  result.number: 0
- compound: "Clc1cc(Cl)cc(Nc2ccnc(Nc3cc(Cl)cc(Cl)c3)n2)c1 [GSK175726]"
  measure: "%Inh"
  result.number: 14
- compound: "Cc1cc(NCC(c2ccccc2)c2ccccc2)nc(NCc2ccc(C(F)(F)F)cc2)n1 [GW497681]"
  measure: "%Inh"
  result.number: 12
- compound: "COc1cc2nccc(Nc3ccc(NC(=O)c4ccc(C)cc4)c(O)c3)c2cc1OC.Cl [GW440132]"
  measure: "%Inh"
  result.number: 2
- compound: "CCn1c(-c2ccccn2)nc2cnccc21 [SB-736398]"
  measure: "%Inh"
  result.number: 0
- compound: "Cc1ccc(-c2cc(-c3c[nH]nc3-c3ccccn3)ccn2)cc1 [GW684088]"
  measure: "%Inh"
  result.number: 12
- compound: "Cn1ccc2ncnc(Oc3ccc(Nc4nc5ccccc5[nH]4)cc3)c21"
  measure: "%Inh"
  result.number: 3
- compound: "Cc1cccc(-c2nc(C)cc(Nc3ccncc3)n2)n1 [GSK257997]"
  measure: "%Inh"
  result.number: 8
- compound: "Nc1nc(-c2nccs2)c(-c2ccnc3ccccc23)s1 [GW693542]"
  measure: "%Inh"
  result.number: 0
- compound: "Cl.NC(=O)c1cccc(Nc2nccc(Nc3ccc(Oc4cccc(Cl)c4)c(Cl)c3)n2)c1 [GW659008]"
  measure: "%Inh"
  result.number: 0
- compound: "CS(=O)(=O)c1ccc(-c2nc3n(c2-c2ccncc2)CCC3)cc1 [SKF-105942]"
  measure: "%Inh"
  result.number: 0
- compound: "COc1cc2ncnc(Nc3ccc4nc(-c5ccccc5)[nH]c4c3)c2cc1OC.Cl [GW282450]"
  measure: "%Inh"
  result.number: 0
- compound: "O=c1cc(N2CCOCC2)nc2n(Cc3cccc(Cl)c3Cl)ccn12 [GSK2286295]"
  measure: "%Inh"
  result.number: 0
- compound: "COC(=O)c1c(-c2ccccc2)c2cc(OC)ccc2c(=O)n1Cc1ccccc1"
  measure: "%Inh"
  result.number: 8
- compound: "O=C(Nc1n[nH]c2nc(-c3nccs3)c(Br)cc12)C1CC1 [SB-742251]"
  measure: "%Inh"
  result.number: 0
- compound: "C[C@@H]1CCCCN1c1cc(-c2ccc3c(N)n[nH]c3c2)nc(N)n1 [GSK2258759]"
  measure: "%Inh"
  result.number: 0
- compound: "Cc1c(O)cccc1Nc1ccnc2ccc(C(F)(F)F)cc12.Cl [GW466413]"
  measure: "%Inh"
  result.number: 0
